tested on: rodent lifetime carcinogenesis bioassay, tumor incidence TD50; assay: carcinogenic potency in animals, long-term in vivo studies, CPDB compilation (AID 1745844); conditions: rat; strain CB; males; i.p.; site: peritoneal cavity; lesion: several types; types named in the paper; dosed 26 weeks; study length 86 weeks
observable: TD50

Record request: TD50 value, item CN(N=O)c1ccc(N=O)cc1
1.3 mg/kg/day

* * *

tested on: rodent lifetime carcinogenesis bioassay, tumor incidence TD50; assay: carcinogenic potency in animals, long-term in vivo studies, CPDB compilation (AID 1745844); settings: rat; strain Wistar; females; in feed; site: liver; lesion: hepatocellular carcinoma; dosed 104 weeks; study length 104 weeks
observable: TD50 (mg/kg/day)
Respond numerically; units are mg/kg/day and should not be typed.

Record request: TD50 value, item CCn1cc(C(=O)O)c(=O)c2cc3c(cc21)OCO3
2440

* * *

test system: rodent lifetime carcinogenesis bioassay, tumor incidence TD50; experiment: carcinogenic potency in animals, long-term in vivo studies, CPDB compilation (AID 1745844); settings: rat; strain Charles River Crl:COBS(WI)BR; males; in feed; site: any site (literature study); lesion: several types; types named in the paper; dosed 105 weeks; study length 105 weeks
Active and inactive are the calls of the source. How the calls were made is not given here.
observable: TD50

Record request: TD50 value, item COc1ccc(CCN2CCC(Nc3nc4ccccc4n3Cc3ccc(F)cc3)CC2)cc1
32.5 mg/kg/day (inactive)

* * *

system: rodent lifetime carcinogenesis bioassay, tumor incidence TD50; test: carcinogenic potency in animals, long-term in vivo studies, CPDB compilation (AID 1745844); conditions: rat; strain Sprague-Dawley; females; inhaled; site: liver; lesion: several types; types named in the paper; dosed 81 weeks; study length 103 weeks
observable: TD50

Record request: TD50 value, item C=CBr
433 mg/kg/day

* * *

test system: rodent lifetime carcinogenesis bioassay, tumor incidence TD50; assay: carcinogenic potency in animals, long-term in vivo studies, CPDB compilation (AID 1745844); settings: mouse; strain B6C3F1; females; in feed; site: all sites; lesion: leukemia + lymphoma; dosed 103 weeks; study length 105 weeks
observable: TD50 (mg/kg/day)
Respond numerically; units are mg/kg/day and should not be typed.

Record request: TD50 value, item CC(=O)Nc1ccc(N=Nc2cc(C)ccc2O)cc1
1510

* * *

test system: rodent lifetime carcinogenesis bioassay, tumor incidence TD50; experiment: carcinogenic potency in animals, long-term in vivo studies, CPDB compilation (AID 1745844); conditions: mouse; strain B6C3F1; females; in feed; site: any site (literature study); lesion: several types; types named in the paper; dosed 77 weeks; study length 91 weeks
Active and inactive are the calls of the source. How the calls were made is not given here.
observable: TD50

Enter reported TD50 observed with rodent lifetime carcinogenesis bioassay, tumor incidence TD50 for CNC(=S)N(C)C
1970 mg/kg/day (inactive)

* * *

system: rodent lifetime carcinogenesis bioassay, tumor incidence TD50; assay: carcinogenic potency in animals, long-term in vivo studies, CPDB compilation (AID 1745844); details: mouse; strain CFLP; males; in feed; site: liver; lesion: hepatocellular tumor; dosed 78 weeks; study length 78 weeks
The source made the active and inactive calls. No rule for the calls is given here.
observable: TD50

Record request: TD50 value, item C#C[C@]1(O)CC[C@H]2[C@@H]3CCc4cc(OC)ccc4[C@H]3CC[C@@]21C
1.81 mg/kg/day (inactive)

* * *

tested on: rodent lifetime carcinogenesis bioassay, tumor incidence TD50; test: carcinogenic potency in animals, long-term in vivo studies, CPDB compilation (AID 1745844); conditions: rat; strain Fischer 344; males; in feed; site: lung; lesion: several types; types named in the paper; dosed 53 weeks; study length 63 weeks
observable: TD50 (mg/kg/day)
Respond numerically; units are mg/kg/day and should not be typed.

Record request: TD50 value, item Cn1c(N)nc2c3cccnc3ccc21
27.1

* * *

system: rodent lifetime carcinogenesis bioassay, tumor incidence TD50; assay: carcinogenic potency in animals, long-term in vivo studies, CPDB compilation (AID 1745844); details: rat; strain Charles River CD (Sprague-Dawley); males; inhaled; site: nose; lesion: malignant tumor; dosed 104 weeks; study length 104 weeks
observable: TD50

Record request: TD50 value, item C=COC(C)=O
2080 mg/kg/day

* * *

system: rodent lifetime carcinogenesis bioassay, tumor incidence TD50; assay: carcinogenic potency in animals, long-term in vivo studies, CPDB compilation (AID 1745844); conditions: mouse; strain B6C3F1; females; inhaled; site: lung; lesion: alveolar/bronchiolar adenoma + alveolar/bronchiolar carcinoma; dosed 103 weeks; study length 104 weeks
observable: TD50 (mg/kg/day)
Respond numerically; units are mg/kg/day and should not be typed.

Here are 3 compounds together with their reported answers.
Record request: TD50 value, item CC1CO1 (centres undefined)
588

Also, c1ccc2ccccc2c1 please.
163

Also, CCc1ccccc1 please.
7950

Shift focus to the following entry.
Record request: TD50 value, item C=Cc1cccc(C)c1
750

* * *

test system: rodent lifetime carcinogenesis bioassay, tumor incidence TD50; assay: carcinogenic potency in animals, long-term in vivo studies, CPDB compilation (AID 1745844); details: mouse; strain CD-1 HaM/ICR; females; in feed; site: liver; lesion: several types; types named in the paper; dosed 68 weeks; study length 77 weeks
The source made the active and inactive calls. The rule behind the calls is not given here.
observable: TD50

Record request: TD50 value, item Nc1c(Cl)cc(Cl)cc1Cl
927 mg/kg/day (inactive)

* * *

tested on: rodent lifetime carcinogenesis bioassay, tumor incidence TD50; experiment: carcinogenic potency in animals, long-term in vivo studies, CPDB compilation (AID 1745844); conditions: rat; strain Sprague-Dawley; females; in feed; site: mammary gland; lesion: adenocarcinoma; dosed 40 weeks; study length 59 weeks
observable: TD50 (mg/kg/day)
Respond numerically; units are mg/kg/day and should not be typed.

Enter reported TD50 observed with rodent lifetime carcinogenesis bioassay, tumor incidence TD50 for CC(=O)Nc1nnc(-c2ccc([N+](=O)[O-])o2)s1
37.7

* * *

system: rodent lifetime carcinogenesis bioassay, tumor incidence TD50; test: carcinogenic potency in animals, long-term in vivo studies, CPDB compilation (AID 1745844); settings: rat; strain Fischer 344; males; in feed; site: all sites; lesion: mononuclear-cell leukemia; dosed 104 weeks; study length 105 weeks
observable: TD50

Record request: TD50 value, item OCC(CO)(CBr)CBr
95.8 mg/kg/day

* * *

tested on: rodent lifetime carcinogenesis bioassay, tumor incidence TD50; test: carcinogenic potency in animals, long-term in vivo studies, CPDB compilation (AID 1745844); conditions: rat; strain Wistar; females; in feed; site: ovary; lesion: several types; types named in the paper; dosed 104 weeks; study length 104 weeks
Calls of active or inactive are those of the source. The rule behind the calls is not given here.
observable: TD50

Record request: TD50 value, item C=CCOc1ccc(CC(=O)O)cc1Cl
390 mg/kg/day (inactive)

* * *

system: rodent lifetime carcinogenesis bioassay, tumor incidence TD50; experiment: carcinogenic potency in animals, long-term in vivo studies, CPDB compilation (AID 1745844); conditions: rat; strain Fischer 344; males; in feed; site: urinary bladder; lesion: papilloma, NOS + transitional-cell carcinoma + transitional-cell papilloma; dosed 78 weeks; study length 105 weeks
observable: TD50

Record request: TD50 value, item Nc1ccc(Cl)cc1N
216 mg/kg/day

* * *

test system: rodent lifetime carcinogenesis bioassay, tumor incidence TD50; test: carcinogenic potency in animals, long-term in vivo studies, CPDB compilation (AID 1745844); conditions: rat; strain Sprague-Dawley; males; by gavage; site: all sites; lesion: leukemia + lymphoma; dosed 52 weeks; study length 84 weeks
Activity calls are given as the source filed them. No rule for the calls is given here.
observable: TD50

Enter reported TD50 observed with rodent lifetime carcinogenesis bioassay, tumor incidence TD50 for CC(C)CCC[C@@H](C)[C@H]1CC[C@H]2[C@@H]3CC=C4C[C@@H](OC(=O)Cc5ccc(N(CCCl)CCCl)cc5)CC[C@]4(C)[C@H]3CC[C@]12C
2.73 mg/kg/day (inactive)

* * *

tested on: rodent lifetime carcinogenesis bioassay, tumor incidence TD50; assay: carcinogenic potency in animals, long-term in vivo studies, CPDB compilation (AID 1745844); conditions: mouse; strain B6C3F1; males; in feed; site: liver + thyroid gland; lesion: hepatocellular adenoma + hepatoblastoma + hepatocellular carcinoma + follicular-cell adenoma; dosed 101 weeks; study length 103 weeks
observable: TD50

Record request: TD50 value, item CCC1(c2ccccc2)C(=O)NCNC1=O
60.2 mg/kg/day

* * *

tested on: rodent lifetime carcinogenesis bioassay, tumor incidence TD50; test: carcinogenic potency in animals, long-term in vivo studies, CPDB compilation (AID 1745844); conditions: rat; strain Sas:MRC(WI)BR; females; in feed; site: any site (literature study); lesion: several types; types named in the paper; dosed 147 weeks; study length 151 weeks
observable: TD50 (mg/kg/day)
Respond numerically; units are mg/kg/day and should not be typed.

Record request: TD50 value, item Cc1ncc([N+](=O)[O-])n1CCO
139

* * *

tested on: rodent lifetime carcinogenesis bioassay, tumor incidence TD50; test: carcinogenic potency in animals, long-term in vivo studies, CPDB compilation (AID 1745844); conditions: rat; strain Wistar; males; in drinking water; site: stomach, glandular; lesion: adenocarcinoma; dosed 52 weeks; study length 65 weeks
observable: TD50

Record request: TD50 value, item CCCN(N=O)/C(N)=N/[N+](=O)[O-]
2.85 mg/kg/day
